The measurements presented in this section are drawn from patent US6019988A.

experimental.details: Plasma concentration after topical application to hairless rats
Assay type: in vivo, hairless rat
condition.parameters: rat, plasma, topical or ocular; dual system 2% ointment + SLS cream, single topical dose; read-out: time of peak plasma concentrations
test.readout: Tmax
# include the unit after the value

Problem: Look at this molecule and give its reported Tmax. CC(=C/C(=O)O)/C(=C/c1ccc2cc3c(cc2c1)C(C)(C)CCC3(C)C)c1cccc(C(=O)O)c1
Solution: 2 h

* * *

experimental.details: Plasma concentration after topical application to hairless rats
Type: in vivo, hairless rat
condition.parameters: rat, plasma, topical or ocular; dual system 2% ointment + SLS cream, single topical dose; read-out: peak plasma concentrations
test.readout: Cmax (ng/mL)
// note: answer is a bare numeric in ng/mL

Problem: // Cmax lookup, key: CC(=C/C(=O)O)/C(=C/c1ccc2cc3c(cc2c1)C(C)(C)CCC3(C)C)c1cccc(C(=O)O)c1
Solution: 2400
